Can you tell me pKd for the items I'm about to list?
assay.system: T1, recombinant human CDCP1 extracellular domain (CDCP1-ECD) (human, UniProt Q9H5V8 30-663)
T1 construct: Expressed in HEK293 and chemically biotinylated for the phage selection; also called human CDCP1 ECD; human CDCP1-ECD
T1 sequence (Q9H5V8 30-663): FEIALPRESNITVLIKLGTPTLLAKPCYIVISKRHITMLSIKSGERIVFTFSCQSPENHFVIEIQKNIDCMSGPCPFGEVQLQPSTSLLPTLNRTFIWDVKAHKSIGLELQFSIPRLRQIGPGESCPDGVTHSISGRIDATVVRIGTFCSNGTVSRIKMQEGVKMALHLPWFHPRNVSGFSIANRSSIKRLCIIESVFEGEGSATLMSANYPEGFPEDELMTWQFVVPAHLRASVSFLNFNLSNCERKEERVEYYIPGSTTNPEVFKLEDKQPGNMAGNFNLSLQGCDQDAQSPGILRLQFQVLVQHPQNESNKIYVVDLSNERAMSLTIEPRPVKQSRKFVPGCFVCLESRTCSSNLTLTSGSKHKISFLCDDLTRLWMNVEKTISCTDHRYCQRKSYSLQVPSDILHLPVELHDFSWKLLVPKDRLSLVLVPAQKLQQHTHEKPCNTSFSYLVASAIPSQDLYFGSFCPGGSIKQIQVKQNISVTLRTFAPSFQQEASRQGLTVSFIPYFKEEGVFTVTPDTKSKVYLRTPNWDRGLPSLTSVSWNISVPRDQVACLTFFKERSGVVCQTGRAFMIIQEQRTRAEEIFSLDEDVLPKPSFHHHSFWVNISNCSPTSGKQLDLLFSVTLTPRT
test.method.notes: SPR (Biacore T200), antibody captured on anti-human IgG, CDCP1-ECD injected
// pKd: -log10(molar conc.)

Query pKd for CP13E10-291 (antibody, human IgG1, kappa, V domains shown, Human IgG1, kappa) VH: EVQLVQSGAEVKKPGASVKVSCKASGYTFTSYYMHWVRQAPGQGLEWMGIINPSGGSTSYAQKFQGRVTMTRDTSTSTVYMELSSLRSEDTAVYYCARDGELRHFDQVYNYHYYMDVWGQGTTVTVSS VL: EIVLTQSPATLSLSPGERATLSCRASQSVGSYLAWYQQRPGQAPRLLIYDASNRATGIPARFSGSGSGTDFTLTISSLEPEDFAVYYCQQRANVFTFGQGTKVEIKR
8.54

Query pKd for CP13E10-54HC-89LC (antibody, human IgG1, kappa, V domains shown, Human IgG1, kappa; Alexa Fluor 647 conjugated in the internalization assay; also called CP13E10-54VH-89VL) VH: EVQLVQSGAEVKKPGASVKVSCKASGYTFTSYYMHWVRQAPGQGLEWMGIINPSGGSTSYAQKFQGRVTMTRDTSTSTVYMELSSLRSEDTAVYYCARDGELRHFDHLLDYHYYMDVWGQGTTVTVSS VL: EIVLTQSPATLSLSPGERATLSCRASQSVGSYLAWYQQRPGQAPRLLIYDASNRATGIPARFSGSGSGTDFTLTISSLEPEDFAVYYCQQRAQEFTFGQGTKVEIKR
7.28

Query pKd for CP13E10-34 variant (antibody, V domains shown) VH: EVQLVQSGAEVKKPGASVKVSCKASGYTFTSYYMHWVRQAPGQGLEWMGIINPSGGSTSYAQKFQGRVTMTRDTSTSTVYMELSSLRSEDTAVYYCARDGVLRHFDHLLDYHYYMDVWGKGTTVTVSS VL: EIVLTQSPATLSLSPGERATLSCRASQSVGSYLAWYQQRPGQAPRLLIYDASNRATGIPARFSGSGSGTDFTLTISSLEPEDFAVYYCQQRANVFTFGQGTKVEIKR
6.22
